Target or test system: T1, Sortilin SORTECDBAP_tetra (tetraodon)
T1 construct: Fully tetraodon Sortilin ECD with BAP tag; also called tetraodon; tetraodon Sortilin
T1 chain: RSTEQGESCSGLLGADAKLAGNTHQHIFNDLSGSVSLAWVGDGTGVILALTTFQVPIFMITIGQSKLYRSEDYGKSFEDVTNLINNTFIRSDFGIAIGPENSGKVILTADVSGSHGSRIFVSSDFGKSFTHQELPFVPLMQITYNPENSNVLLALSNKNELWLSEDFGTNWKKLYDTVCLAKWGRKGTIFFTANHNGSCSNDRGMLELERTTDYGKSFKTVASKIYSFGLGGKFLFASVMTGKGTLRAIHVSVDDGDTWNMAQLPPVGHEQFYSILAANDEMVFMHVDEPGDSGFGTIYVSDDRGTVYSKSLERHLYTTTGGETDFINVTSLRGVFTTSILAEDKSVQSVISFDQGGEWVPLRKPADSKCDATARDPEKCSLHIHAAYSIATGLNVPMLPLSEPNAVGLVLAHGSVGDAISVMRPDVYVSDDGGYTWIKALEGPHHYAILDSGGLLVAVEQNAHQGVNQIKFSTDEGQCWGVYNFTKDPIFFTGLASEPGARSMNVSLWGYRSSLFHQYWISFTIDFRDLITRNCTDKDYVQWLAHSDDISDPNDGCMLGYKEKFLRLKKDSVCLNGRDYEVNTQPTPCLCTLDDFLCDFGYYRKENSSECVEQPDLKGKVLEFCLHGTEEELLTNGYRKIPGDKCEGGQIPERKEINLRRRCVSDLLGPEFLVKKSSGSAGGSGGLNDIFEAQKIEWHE
Test: BLI (Octet384RED)

| Binder | binding result |
| --- | --- |
| Antibody 6003-028 (antibody, human IgG1, V domains shown) VH: EVQLLESGGGLVQPGGSLRLSCAASGFTFSSYAMSWVRQAPGKGLEWVSTISGRGGSTYYADSVKGRFTISRDNSKNTLYLQMNSLRAEDTAVYYCANLYSNYWYFDLWGRGTLVTVSS VL: EIVLTQSPATLSLSPGERATLSCRASQSVSSFLAWYQQKPGQAPRLLIYDASNRATGIPARFSGSGSGTDFTLTISSLEPEDFAVYYCQQRSNWPLTFGGGTKVEIK | no binding |
| Antibody 6003-056 (antibody, human IgG1, V domains shown) VH: EVQVLESGGGLVQPGGSLRLSCVASGFTFSSYAMHWVRQAPGKGLEWVSAISGRGGSTYYADSVKGRFTISRDNSKNTLYLQMNSLRAEDTAVYYCAIIPSLYWYFDLWGRGTLVTVSS VL: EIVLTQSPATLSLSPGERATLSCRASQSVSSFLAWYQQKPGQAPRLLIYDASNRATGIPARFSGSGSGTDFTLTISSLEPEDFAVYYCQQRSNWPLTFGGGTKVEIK | no binding |
| Antibody 6003-083 (antibody, human IgG1, V domains shown) VH: EVQLLESGGGLVQPGGSLRLSCAASGFTFSSYAMSWVRQAPGKGLEWVSTISGRGGSTYYADSVKGRFTISRDNSKNTLYLQMNSLRAEDTAVYYCAIVATMYWYFDLWGRGTLVTVSS VL: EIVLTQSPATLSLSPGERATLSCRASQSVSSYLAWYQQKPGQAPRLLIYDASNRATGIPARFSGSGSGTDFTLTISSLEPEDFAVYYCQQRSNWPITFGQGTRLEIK | no binding |
